- Test system: Rattus norvegicus
- assay_summary: Compound was tested for its ability (% reversal in rats) to reverse electroconvulsive shock-induced amnesia in rodents at a dose of 100 (mg/kg) administered intramuscularly (im)
- Type: functional
Reversal by entry:

compound	Reversal
CC(C)CC(NCC1CCCN1C(=O)OCc1ccccc1)C(=O)NCC(N)=O (stereo unspecified)	60%
NC(=O)CNC(=O)[C@H](CCCCNC(=O)OCc1ccccc1)NCC1CCCN1 (stereo partly specified)	83%
O=C(O)COCC1CCCN1C(=O)OCc1ccccc1 (stereo unspecified)	62%
NC(=O)COCC(Cc1ccccc1)NC(=O)C1CCCN1C(=O)OCc1ccccc1 (stereo unspecified)	25%
CC(C)CC1CN(C[C@H](CC(C)C)NC(=O)[C@@H]2CCCN2C(=O)OCc2ccccc2)CC(=O)N1 (stereo partly specified)	80%
Cc1ccc(S(=O)(=O)N2CCCC2CN[C@@H](CC(C)C)C(=O)NCC(N)=O)cc1 (stereo partly specified)	87%
CC(C)CC(CNCC(=O)O)NC(=O)C1CCC(=O)N1 (stereo unspecified)	50%
CC(C)CC(N)CN1CC(=O)NC(CC(C)C)C1 (stereo unspecified)	24%
CC(C)C[C@@H](CSCC(=O)O)NCC1CCCN1C(=O)OCc1ccccc1 (stereo partly specified)	100%
CC(C)CC(CSCC(=O)O)NC(=O)C1CCC(=O)N1C(=O)OCc1ccccc1 (stereo unspecified)	0%
O=C(NCCCCC(CO)NC(=O)C1CCCN1C(=O)OCc1ccccc1)OCc1ccccc1 (stereo unspecified)	0%
